src = patent US7109329B2

experiment: Activities and properties of the compounds (Table III codes listed as Specific Properties in Table IV); conditions: codes of Table III; higher levels of activity
Test readout: Specific Properties

{"Molecule": "CC/C(=C(\\c1ccccc1)c1ccc(OC(=O)CNC(=N)N)cc1)c1ccccc1", "Test readout": "Specific Properties", "Endpoint result": "27, Progestin"}
{"Molecule": "Cc1c(C)c2c(c(C)c1O)CCC(C)(C(=O)Nc1ccc(C(=O)NNC(=N)N)cc1)O2 (centres unmarked)", "Test readout": "Specific Properties", "Endpoint result": "9–15"}
{"Molecule": "CC(C)c1cccc(C(C)C)c1C=NCC(=N)N", "Test readout": "Specific Properties", "Endpoint result": "14, 17, adrenergic antagonist, 22, 23"}
